Provenance of the data: the Immune Epitope Database (IEDB)

// values below are reported pKd
biological target: HLA-B*18:01; test: IEDB peptide-MHC binding, purified MHC/competitive/radioactivity; filed as Kd, often an IC50 or EC50 that approximates it; bounds were set here for any values at or beyond the usual limits of such assays; conditions: source organism: SARS coronavirus Tor2
Give only the number. pKd is defined as minus log10 of concentration in molar units.

q: Which pKd is reported for this sequence? `SELRPDTRY`
a: 4.95

q: Which pKd is reported for this sequence? `SEFSSLPSYA`
a: 5.97

q: Which pKd is reported for this sequence? `FERDISNVPF`
a: 7.49

q: Which pKd is reported for this sequence? `EEVAIILASF`
a: 6.97

q: Which pKd is reported for this sequence? `NEKVAGFAKF`
a: 5.81

q: Which pKd is reported for this sequence? `SEAFLIGANY`
a: 8.35

q: Which pKd is reported for this sequence? `LEVKFNAPA`
a: 6.95

q: Which pKd is reported for this sequence? `MEVQSLAMST`
a: 6.01

q: Which pKd is reported for this sequence? `MELPTGVHA`
a: 4.74

---

molecular target: HLA-B*40:01; test: IEDB peptide-MHC binding, purified MHC/competitive/radioactivity; filed as Kd, often an IC50 or EC50 that approximates it; bounds were set here for any values at or beyond the usual limits of such assays; settings: source organism: Mammarenavirus juninense
pKd: −log10 of the molar value.
// values below are reported pKd

ordered_residues=SDQKFVDVI study_target=HLA-B*40:01 result="≤ 4.15"

Turning now to a further record.
q: Which pKd is reported for this sequence? `EELIKLRFWF`
a: ≤ 4.44

---

molecular target: HLA-B*39:01; assay: IEDB peptide-MHC binding, purified MHC/direct/fluorescence; filed as Kd, often an IC50 or EC50 that approximates it; bounds were set here for any values at or beyond the usual limits of such assays; conditions: source organism: Salmonella enterica subsp. enterica serovar Virchow
reported-metric: Kd

q: Which Kd is reported for this sequence? `CTWPEASRY`
a: ≥ 20 µM

---

molecular target: HLA-A*02:11; assay: IEDB peptide-MHC binding, purified MHC/competitive/fluorescence; filed as Kd, often an IC50 or EC50 that approximates it; bounds were set here for any values at or beyond the usual limits of such assays; conditions: source organism: Vibrio antiquarius
reported-metric: pKd
Give only the number. pKd is defined as minus log10 of concentration in molar units.

q: Entry `SLTIPSFYT` , system HLA-A*02:11: what pKd was measured?
a: 8.01

---

molecular target: HLA-B*18:01; assay: IEDB peptide-MHC binding, purified MHC/competitive/fluorescence; filed as Kd, often an IC50 or EC50 that approximates it; bounds were set here for any values at or beyond the usual limits of such assays; details: source organism: Brucella melitensis bv. 1 str. 16M
reported-metric: Kd

q: Entry `AVGVVCTGL` , system HLA-B*18:01: what Kd was measured?
a: ≥ 20 µM

---

biological target: HLA-B*15:17; assay: IEDB peptide-MHC binding, purified MHC/direct/fluorescence; filed as Kd, often an IC50 or EC50 that approximates it; bounds were set here for any values at or beyond the usual limits of such assays; settings: source organism: Camelpox virus M-96
pKd: −log10 of the molar value.
reported-metric: pKd

q: Which pKd is reported for this sequence? `KELENEYYF`
a: ≤ 4.70
